Reported ASPARTATE AMINOTRANSFERASE values for a set of molecules
- Species: Rattus norvegicus
- PROTOCOL_NOTES: DrugMatrix - Regimen: Daily Repeat
- Assay type: toxicity, organism-based, Sprague-Dawley
- Parameters: regimen Daily Repeat, gender Male, age 6-8 weeks
- MEASUREMENT_CONDITIONS: in vivo, po, 0 mg/kg, 120 h, tissue Plasma, route oral GAVAGE, dose level Control, time 5 day, vehicle .5 % CMC
MEASUREMENT_LABEL: ASPARTATE AMINOTRANSFERASE (u/L)

>>> data_value("COc1ccc(/C=C/C(=O)Nc2ccccc2C(=O)O)cc1OC")
76.5
>>> data_value("Nc1cccc(Cl)c1")
71.67
>>> data_value("CCCCC1C(=O)N(c2ccccc2)N(c2ccccc2)C1=O")
99

* * *

- Species on record: Rattus norvegicus
- PROTOCOL_NOTES: DrugMatrix - Regimen: Daily Repeat
- Format: toxicity, organism-based, Sprague-Dawley
- Design: regimen Daily Repeat, gender Male, age 6-8 weeks
- MEASUREMENT_CONDITIONS: in vivo, po, 0 mg/kg, 120 h, tissue Blood, route oral GAVAGE, dose level Control, time 5 day, […]
Item-by-item account of ABSOLUTE SEGMENTED NEUTROPHIL
MEASUREMENT_LABEL: ABSOLUTE SEGMENTED NEUTROPHIL (CELLS/uL)

>>> data_value("CC(=O)Nc1nnc(S(N)(=O)=O)s1 [ACETAZOLAMIDE]")
527
>>> data_value("CC[C@H](C)C(=O)O[C@H]1C[C@H](O)C=C2C=C[C@H](C)[C@H](CC[C@@H](O)C[C@@H](O)CC(=O)O)[C@H]21")
646.83
>>> data_value("CCn1cc(C(=O)O)c(=O)c2cc(F)c(N3CCNCC3)nc21")
3070.33
>>> data_value("NC[C@@H]1O[C@H](O[C@H]2[C@@H](O)[C@H](O[C@@H]3[C@@H](O)[C@H](N)C[C@H](N)[C@H]3O[C@H]3O[C@H](CN)[C@@H](O)[C@H](O)[C@H]3N)O[C@@H]2CO)[C@H](N)[C@@H](O)[C@@H]1O")
1049.67
>>> data_value("CC[C@H](C)C(=O)O[C@H]1C[C@@H](C)C=C2C=C[C@H](C)[C@H](CC[C@@H]3C[C@@H](O)CC(=O)O3)[C@H]21")
1034
>>> data_value("COc1ncnc(NS(=O)(=O)c2ccc(N)cc2)c1OC")
527
>>> data_value("CN(CCOc1ccc(CC2SC(=O)NC2=O)cc1)c1ccccn1 (configuration not stated)")
646.83

* * *

- Organism: Rattus norvegicus
- PROTOCOL_NOTES: DrugMatrix - Regimen: Daily Repeat
- Assay type: toxicity, organism-based, Sprague-Dawley
- Parameters: regimen Daily Repeat, gender Male, age 6-8 weeks
- MEASUREMENT_CONDITIONS: in vivo, po, 0.0007 mg/kg, 2184 h, tissue Blood, route oral GAVAGE, dose level Low, time 91 day, vehicle .5 % CMC
MEASUREMENT_LABEL: ABSOLUTE EOSINOPHIL (cells/µL)

>>> data_value("Clc1cc2c(cc1Cl)Oc1cc(Cl)c(Cl)cc1O2")
140

* * *

Measured MONOCYTE accompanies every entry in the list below.
- Organism: Rattus norvegicus
- PROTOCOL_NOTES: DrugMatrix - Regimen: Daily Repeat
- Format: toxicity, organism-based, Sprague-Dawley
- Parameters: regimen Daily Repeat, gender Male, age 6-8 weeks
- MEASUREMENT_CONDITIONS: in vivo, po, 0 mg/kg, 72 h, tissue Blood, route oral GAVAGE, dose level Control, time 3 day, vehicle .5 % CMC
MEASUREMENT_LABEL: MONOCYTE (%)

>>> data_value("C[C@]12C/C(=C/O)C(=O)C[C@@H]1CC[C@@H]1[C@@H]2CC[C@@]2(C)[C@H]1CC[C@]2(C)O [OXYMETHOLONE]")
2.14
>>> data_value("COc1ccccc1OCC(O)COC(N)=O (stereo not given) [METHOCARBAMOL]")
1.17
>>> data_value("CC(=O)O[C@]1(C(C)=O)CC[C@H]2[C@@H]3C=C(Cl)C4=CC(=O)[C@@H]5C[C@@H]5[C@]4(C)[C@H]3CC[C@@]21C [CYPROTERONE ACETATE]")
1.33
>>> data_value("CN1C(=O)CN=C(c2ccccc2)c2cc(Cl)ccc21 [DIAZEPAM]")
1.17
>>> data_value("CO[C@H]1C[C@@H]2CC[C@@H](C)[C@@](O)(O2)C(=O)C(=O)N2CCCC[C@H]2C(=O)O[C@H]([C@H](C)C[C@@H]2CC[C@@H](O)[C@H](OC)C2)CC(=O)[C@H](C)/C=C(\\C)[C@@H](O)[C@@H](OC)C(=O)[C@H](C)C[C@H](C)/C=C/C=C/C=C/1C [SIROLIMUS]")
0.83
